# Experimental Target: Substance-P receptor (Homo sapiens, UniProt P25103)
# Sequence (P25103 whole entry): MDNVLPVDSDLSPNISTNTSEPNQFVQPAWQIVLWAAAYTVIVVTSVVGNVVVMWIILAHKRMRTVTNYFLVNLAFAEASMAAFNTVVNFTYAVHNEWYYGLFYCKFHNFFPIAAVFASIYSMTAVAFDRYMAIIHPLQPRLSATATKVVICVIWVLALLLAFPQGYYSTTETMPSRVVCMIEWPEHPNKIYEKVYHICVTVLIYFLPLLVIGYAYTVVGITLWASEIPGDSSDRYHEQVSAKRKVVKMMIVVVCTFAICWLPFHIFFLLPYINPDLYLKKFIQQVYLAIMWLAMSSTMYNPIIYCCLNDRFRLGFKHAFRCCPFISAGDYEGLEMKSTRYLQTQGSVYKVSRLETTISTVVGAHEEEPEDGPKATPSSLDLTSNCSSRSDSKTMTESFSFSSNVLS
# Assay Name: Inhibition of [125I]-BH-Substance P binding to tachykinin receptor 1 in human IM-9 cells
Readout Name: IC50 (nM)

Smiles: Cc1cc2c(-c3ccccc3)c(NC(=O)N(C)Cc3cc(C(F)(F)F)cc(C(F)(F)F)c3)n(C)c(=O)c2cc1C
Result Value: 54
--
Smiles: Cc1ccc(-c2c(C(=O)N(C)Cc3cc(C(F)(F)F)cc(C(F)(F)F)c3)n(C)c(=O)c3ncccc23)cc1
Result Value: 7
--
Smiles: CN(Cc1ccccc1)C(=O)Nc1c(-c2ccccc2)c2ccccc2c(=O)n1C
Result Value: 1100

A. Cc1cc(C)cc(CN(C)C(=O)c2c(-c3ccccc3C)c3ccccc3c(=O)n2C)c1
B. COc1ccccc1CN(C)Cc1c(-c2ccccc2)c2cc(C)c(C)cc2c(=O)n1C
Among A and B , whose measured IC50 is the smaller figure? Pick one and reply with its label.
A
